This collection of values is drawn from ChEMBL document CHEMBL5058577.

Here, each record is paired with measured Population Mitochondria Different-Phenotype (%) data.
Tested on: U2OS
Test: Multiplex assay against U2OS
Type: toxicity, cell-based
Settings: human, 48 h, 1 µM, compound concentration 1 uM, replicate 1
endpoint: Population Mitochondria Different-Phenotype (%)

# molecule, system, unitsLabel, measuredValue
data = [
    ("Cc1ccc(C(C)(O)c2nc3ccccc3s2)c(C)c1 (configuration not stated)", "U2OS", "%", 2),
    ("O=C(O)Cc1ccccc1Nc1c(Cl)cccc1Cl [DICLOFENAC]", "U2OS", "%", 2),
    ("N[C@@]1(C(=O)O)CO[C@H]2[C@H](C(=O)O)[C@H]21 [LY-379268]", "U2OS", "%", 2),
    ("Cc1nc2ccc(Oc3ccc(F)cc3)cc2c(=O)n1C[C@H]1CCCN(C(C)C)C1.Cl", "U2OS", "%", 5),
    ("CSCC[C@H](NC=O)C(=O)N[C@@H](CC(C)C)C(=O)N[C@@H](Cc1ccccc1)C(=O)O", "U2OS", "%", 3),
    ("CN(C)CCCc1cc(C(=O)Nc2ccc(-c3ccncc3)cc2)ccc1O.Cl.Cl", "U2OS", "%", 3),
    ("O=C(NCCO)c1cccc(-c2cc(Nc3ccc(OC(F)(F)F)cc3)ncn2)c1", "U2OS", "%", 3),
    ("COc1cc(C(=O)N(CCCc2ccccc2)Cc2ccc(CC(=O)O)cc2)cc(OC)c1C", "U2OS", "%", 2),
    ("Cl.Clc1ccc2nsnc2c1NC1=NCCN1 [TIZANIDINE HYDROCHLORIDE]", "U2OS", "%", 1),
    ("CCCn1c(=O)c2[nH]c(C3CCCC3)nc2n(CCC)c1=O", "U2OS", "%", 1),
    ("C[C@H](NC(=O)c1c(C(F)F)nn(C)c1Oc1cccc(C(F)(F)F)c1)c1ccc(C(=O)O)cc1 [PALUPIPRANT]", "U2OS", "%", 1),
    ("Cc1ccc(/C(=C\\CN2CCCC2)c2ccccn2)cc1 [TRIPROLIDINE]", "U2OS", "%", 3),
]
